measurementLabel: melting point

N#CNc1nc2ccccc2o1	175 °C
Cc1ccccc1C1CCN(C(=O)CCC(=O)c2ccc3c(c2)CCN(C(=O)C(F)(F)F)CC3)CC1	130 to 131 °C
CC1(C)Oc2ccc(C#N)cc2[C@@H](NC(=O)C2=C(c3ccccc3)CCC2)[C@@H]1O	156 to 158 °C
OCc1ccc(-c2ccc(F)cn2)cc1	100 to 101 °C
CN(C(=O)C(F)(F)F)c1ccc2[nH]ncc2c1	172 to 174 °C

Query: Respond only with melting point recorded for "CCCCCSc1ccc(-c2ncc(CCCCC)cn2)cc1"
Result: 52.8 °C

Query: Check the records and state melting point for "CCc1cc(NCc2ccc(-c3ccccc3C#N)cc2)n2nccc2n1"
Result: 230 to 233 °C

Query: Using the record for "CCOc1cccc(CC(=O)O)c1OCCCc1cn(-c2ccc(C(F)(F)F)cn2)nc1OCC" , state its measured melting point.
Result: 114 to 115 °C

Query: Provide one value: measured melting point of "COc1cc2ncnc(Nc3ccc(OCc4ccccn4)c(C)c3)c2cc1O"
Result: 234 to 235 °C

Query: Give reported melting point value for "CCOC(=O)c1ccc2c(c1)N=C(C)c1ccc(OC)cc1O2"
Result: 117 to 118 °C

Query: Please indicate melting point recorded for CCOC(Cc1cnc2ccc(OCc3ccc([N+](=O)[O-])cc3)cc2c1)C(=O)O (configuration not stated)
Result: 169 to 174 °C

----------
# melting point values compiled below

These solved cases illustrate the format of a correct answer.
O=C(CSCCCOc1ccccc1)NNC(=O)c1ccc(O)cc1	146 to 151 °C
Cc1cnc(-c2cc3c(OC[C@@H](O)CN4CCC(c5ccc6ccccc6c5)CC4)cccc3s2)o1	138 to 139 °C
CCCCCCCCCCCCSC(CCC)C(=O)Nc1cc(C)c(O)c(C)c1C (stereo not given)	116 °C
FC(F)(F)c1cccc(-c2ncc(CCl)c(C3CC3)n2)c1	92 to 95 °C
CC(C#N)(CC#N)c1cccc([N+](=O)[O-])c1 (stereo not given)	142 to 143 °C

Query: For the molecule "CC=C1CCC(C(=O)OCCOC(=O)C2=C(C)C(=CC)CC2)=C1C" , report melting point.
Result: 95 to 97 °C

Query: // fetch melting point given entry "CCCCCCCCCCOc1ccc2c(=O)c3cccc(C(=O)OCC)c3oc2c1CCC(=O)OCC"
Result: 69 to 70 °C

Query: Supply melting point value. Item: N#CC1=C(n2cccc2)Oc2c(ccc3ccccc23)C1c1cccc([N+](=O)[O-])c1 (stereo not given)
Result: 184 to 185 °C

Query: Look up and report measured melting point for this entry: "COc1cccc(C(=O)c2sc(NC(=O)c3ccncc3)nc2-c2ccco2)n1"
Result: 247 to 250 °C

Query: Name the recorded melting point of the item "O=C(OCc1ccc[nH]c1=O)c1ccc(F)cc1" in your answer.
Result: 170 to 173 °C

----------
measurementLabel: melting point

CN(C)CCCOc1ccc(C(=O)NN)nc1	82 to 83 °C
CCOc1csc(C2OC(=O)NC2=O)c1 (stereo unspecified)	144 to 146 °C
CC(=O)C(O)C1OC(S(=O)(=O)c2ncc(Cl)cn2)C(O)(C(C)=O)C(O)(C(C)=O)C1(O)C(C)=O (stereo unspecified)	180 °C
Cc1nc(CS(=O)(=O)c2cccc(Cl)c2Cl)no1	105 to 107 °C
CCCCCCCCCCCCCCCCCCNC(=O)c1ccccc1I	94 to 96 °C

Turning now to a further compound:
Query: # return recorded melting point for entry "C=C(Cc1ccc(OC)cc1)C(=O)O"
Result: 88 to 91 °C

----------
measurementLabel: melting point

O=C1NC(=O)C(Cc2ccc(OC[C@@H]3CCCN3c3ccc4ccccc4n3)cc2)S1 (stereo not given in full)	81 to 83 °C
CSc1ccc(OCCO)cc1	55 to 56.5 °C
CCCCNC(=O)ON1C(C)(C)CC(OC(=O)c2ccccc2)CC1(C)C	126 to 127 °C
COC(=O)c1cccc(-c2nnc(-c3ccccc3N)cc2CCCO)c1	141 °C

// below: melting point requested for another molecule
Query: Find the measured melting point of Cc1ccccc1C(=O)NC(NC(=NC#N)Nc1cccnc1)C(Cl)(Cl)Cl (stereo not given) and report it.
Result: 126 to 128 °C

----------
Listed next: entries and their corresponding melting point.

Some molecules with known melting point results, for comparison:
CCC(C(=O)O)N(C(=O)c1cn(-c2ccc(OC)cc2)nc1C)c1ccc(OCC(C)(C)C)c(C#N)c1 (centres undefined)	113 to 114 °C
CC(=O)C(Cc1ccccc1)(N=Nc1ccc(C(O)(C(F)(F)F)C(F)(F)F)cc1)C(N)=O (centres undefined)	128 to 133 °C
COc1cccc(-c2ccc3c(c2)C2(CCCCC2)C(=NO)N3)c1	101 to 104 °C

Query: Recall and state the measured melting point for C[C@@H](SCCCO)[C@](O)(Cn1cncn1)c1ccc(F)cc1F (relative stereo) .
Result: 119 to 120 °C

----------
measurementLabel: melting point

CC(C)(C)OC(=O)C1CCCN1C(=O)NN (stereo not given)	83 to 84 °C
O=C(Nc1ccccc1)C1=CNCCC1	209 to 212 °C
COC(=O)C(NS(=O)(=O)c1ccc(-c2ccc(NC(=O)c3oc4cccc(C(C)OC)c4c3C)cc2)cc1)C(C)C (stereo not given)	186 to 188 °C
O=C(c1ccc(Br)cc1)c1ncccc1O	94 to 95 °C

Query: Give the measured melting point for "CCOC(=O)c1ccc(-c2ccc(-c3ccccc3)cc2-c2ccc3c(c2)C(C)(C)CCC3(C)C)cc1O"
Result: < 70 °C

Query: Recall and state the measured melting point for "Cc1nc[nH]c1CSCCNC1=NC(=O)C(C)(C)N1" .
Result: 232 to 236 °C

Query: Determine its reported melting point: CN1CC(CNC(=N)NC(=O)c2cccnc2)CC2c3cccc4c3c(cn4C)CC21 (stereo not given)
Result: 207 to 209 °C

Query: Return value of melting point for input "CCn1c(=O)n(OCc2ccccc2)c(=O)c2cc(F)c(N3CCN(C)CC3)cc21" , no commentary.
Result: 134 to 136 °C

Query: Give recorded melting point. "COc1ccc(Cc2cc(C3CCN(C(=O)c4ccccc4)CC3)nc(N)n2)cc1"
Result: 170 to 171 °C

Query: Please give measured melting point of the following entry: "C[Si](C)(C)Sc1nnnn1-c1ccccc1"
Result: 67 to 68 °C

----------
measurementLabel: melting point

Use these answered entries as a reference point.
CC(C)c1cc(C(=O)O)c(N)c(C(C)C)c1	114 to 116 °C
Cc1ccccc1NC(=O)Nc1ccc(CC(=O)NC(CC(C)C)C2=NOC(CCC(=O)O)(CCC(=O)O)C2)cc1 (stereo unspecified)	173 to 175 °C
CC(=O)OC1CSC(Oc2ccc(-c3ccc(C(F)(F)F)cc3)nc2)C(OC(C)=O)C1OC(C)=O (stereo unspecified)	178 to 180 °C
CC(C)N(CCOc1ccc(CC2SC(=O)NC2=O)cc1)C(C)C (stereo unspecified)	134 to 135 °C
CC(C)(C)OC(=O)NCc1ccnc(Cl)n1	86 to 88 °C

Query: Identify measured melting point associated with "CNc1c(C(=O)OC)c(C)nc2c1c1ccccc1n2C"
Result: 90 to 91 °C

Query: Consider the compound "CC(C)C[C@H](NC(=O)OCCC1c2ccccc2-c2ccccc21)C(=O)O" . State its measured melting point.
Result: 42 to 43 °C

Query: Annotate the compound "CCOC(=O)c1cc2cc(OCCCOC)cc(N(C)S(=O)(=O)c3ccccn3)c2[nH]1" with its measured melting point.
Result: 98 to 99 °C

Query: Answer with the recorded melting point for the compound listed here: "OC1(c2cccn2Cc2ccccc2F)CCN(CCc2ccc(Cl)cc2)CC1"
Result: 108 to 109 °C

Query: Recall and state the measured melting point for "CCN(c1ccc2c(c1)OCO2)c1nc(=O)c2cccnc2s1" .
Result: 184 to 185 °C

Query: In one line, give reported melting point of the entry "ONCc1coc(-c2ccccc2)n1" .
Result: 59 to 61 °C

Query: Could you please provide reported melting point for CN(Cc1ccccc1)C1c2ccccc2CC1O (stereo unspecified) ? Thanks!
Result: 64 °C

Query: Return melting point for the following compound: "c1ccc2c(c1)-c1nccc3ccnc-2c13"
Result: 152 to 153 °C

Query: Specify measured melting point for "CCOC(=O)c1c(N)cc(C(F)(F)F)nc1C(F)(F)F" .
Result: 43 to 45 °C

Query: Report measured melting point; entry is "CC(=O)Oc1ccc2c(=O)c(C=O)coc2c1"
Result: 157 to 159 °C

Query: Quickly give me recorded melting point for "CCCc1nn(-c2ccc(C(F)(F)F)cn2)cc1CCCOc1cccc(CC(=O)O)c1"
Result: 106 to 107 °C

Query: Name the recorded melting point of the compound listed here: "CC(=O)OCCCCN1CCC(CNC(=O)[C@@H]2CCCN2S(=O)(=O)c2ccc(Cl)c(COc3cccc4c(-n5ccnc5)cc(C)nc34)c2Cl)CC1"
Result: 86 °C

Query: Quickly give me recorded melting point for "CCCc1nc2ccc(OC(F)(F)F)cc2[nH]1"
Result: 88 to 90 °C

Query: Tell us which melting point value is on record for "CCCCCC(=O)C=Cc1ccc(CC(=O)O)s1"
Result: 51 °C

Query: Tell me melting point reported for "COc1cc(N)c2nccc(C)c2c1OCCCCCc1ccccc1"
Result: 65 to 66 °C

Query: # return recorded melting point for input "O=C(NN=Cc1c(O)c(O)cc2ccccc12)c1cc2ccccc2cc1O"
Result: > 285 °C
